Molecular target: GST fusion protein containing the Met kinase domain (Homo sapiens, UniProt P08581)
Construct: Purified GST fusion protein containing the Met kinase domain, Sugen, Inc
Sequence (P08581 1078-1345 limits assumed): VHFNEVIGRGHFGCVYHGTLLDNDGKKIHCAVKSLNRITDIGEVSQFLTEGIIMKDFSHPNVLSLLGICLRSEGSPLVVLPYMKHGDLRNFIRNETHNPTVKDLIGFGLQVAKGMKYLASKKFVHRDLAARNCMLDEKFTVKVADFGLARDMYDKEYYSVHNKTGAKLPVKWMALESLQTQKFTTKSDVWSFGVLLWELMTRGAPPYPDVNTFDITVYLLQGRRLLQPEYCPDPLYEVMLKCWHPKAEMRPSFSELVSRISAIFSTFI
Experiment: MET Transphosphorylation Assay (ELISA, poly(Glu,Tyr) 4:1 substrate)
Details: met transphosphorylation of poly(glutamic acid:tyrosine 4:1) substrate; two values in a cell separated by '/'
attribute measured: IC50 (µM)
Kindly provide the numeric value in µM only, without the unit symbol.

Qu. Please give the measured IC50 for this molecule: CC(C(=O)N/N=C1\C(=O)Nc2c(Cl)ccc(Cl)c21)c1ccc(O)c(Br)c1 (centres unmarked) [II-104]
Ans. 0.79

Qu. Field request: IC50 | item: O=C(Cc1cc[n+]([O-])cc1)N/N=C1\C(=O)Nc2ccccc21 [II-37]
Ans. 10.8
